# System: DLD-1
# PROTOCOL SUMMARY: Drug combination screen (ATPlite, Synergy Score), DLD-1
# SETUP CONDITIONS: compound in combination with IgG1-hDR5-01-G56T-E430G + IgG1-hDR5-05-E430G; DLD-1; 120 hour ATPlite, 6x6 matrix
What Synergy Score DLD-1 was measured for each of the following?

C[C@H](Nc1ncnc2nc[nH]c12)c1cc2cccc(Cl)c2c(=O)n1-c1ccccc1    0
COCCNCc1ccc(-c2cc3nccc(Oc4ccc(NC(=S)NC(=O)Cc5ccc(F)cc5)cc4F)c3s2)nc1    0.2

Return reported Synergy Score DLD-1 values for all items listed beneath this line.
1. CC(C)(C)c1nc(-c2cccc(NS(=O)(=O)c3c(F)cccc3F)c2F)c(-c2ccnc(N)n2)s1
2. CC1=C(C(=O)Nc2cc3cn[nH]c3cc2F)C(c2ccc(C(F)(F)F)cc2)CC(=O)N1 (centres unmarked) [Compound G5K429286A]
3. Cc1ccc(C(=O)Nc2ccc(CN3CCN(C)CC3)c(C(F)(F)F)c2)cc1C#Cc1cnc2cccnn12
4. COc1cccc2c1C(=O)c1c(O)c3c(c(O)c1C2=O)C[C@@](O)(C(=O)CO)C[C@@H]3O[C@H]1C[C@H](N)[C@@H](O)[C@H](C)O1 [Epirubicin]
5. C[C@H]1C[C@@H]2[C@H]([C@@H](O)C[C@@]3(C)[C@H]2CC[C@]3(O)C(=O)CO)[C@@]2(C)C=CC(=O)C=C12
6. Cn1c(Nc2ccc(C(F)(F)F)cc2)nc2cc(Oc3ccnc(-c4ncc(C(F)(F)F)[nH]4)c3)ccc21
7. C=CC(=O)Nc1ccc2ncnc(Nc3ccc(OCc4cccc(F)c4)c(Cl)c3)c2c1

Result:
1. 2.2
2. 4.9
3. 4.3
4. 15.6
5. 0
6. 5.6
7. 0.3

Return reported Synergy Score DLD-1 values for all items listed beneath this line.
1. N.N.O=C([O-])C1(C(=O)[O-])CCC1.[Pt+2]
2. COc1cc2nccc(Oc3ccc(NC(=O)C4(C(=O)Nc5ccc(F)cc5)CC4)cc3)c2cc1OC
3. C[C@@H]1CCN(C(=O)CC#N)C[C@@H]1N(C)c1ncnc2[nH]ccc12

Result:
[11.3, 4.1, 0.1]

Return reported Synergy Score DLD-1 values for all items listed beneath this line.
1. CO[C@H]1C[C@@H]2CC[C@@H](C)[C@@](O)(O2)C(=O)C(=O)N2CCCC[C@H]2C(=O)O[C@H]([C@H](C)C[C@@H]2CC[C@@H](OCCO)[C@H](OC)C2)CC(=O)[C@H](C)/C=C(\C)[C@@H](O)[C@@H](OC)C(=O)[C@H](C)C[C@H](C)/C=C/C=C/C=C/1C
2. CC1(C)CCC(c2ccc(Cl)cc2)=C(CN2CCN(c3ccc(C(=O)NS(=O)(=O)c4ccc(N[C@H](CCN5CCOCC5)CSc5ccccc5)c(S(=O)(=O)C(F)(F)F)c4)cc3)CC2)C1

Result:
1: 0.4; 2: 3.4

---

What Synergy Score DLD-1 was measured for each of the following?
# System: DLD-1
# PROTOCOL SUMMARY: Drug combination screen (ATPlite, Synergy Score), DLD-1
# SETUP CONDITIONS: compound in combination with IgG1-hDR5-01-G56T-E430G + IgG1-hDR5-05-E430G; DLD-1; 120 hour ATPlite, 6x6 matrix

Examples with their reported Synergy Score DLD-1 follow.
N.N.[Cl][Pt][Cl] [Cisplatin]    8.8
C[C@@]1(C(=O)Nc2ccc(F)nc2)CCCN1c1nc(Nc2cc(C3CC3)n[nH]2)c2cccn2n1 [BMS-754807]    11.3
COc1cc(C(=O)O)ccc1NC(=O)[C@@H]1N[C@@H](CC(C)(C)C)[C@](C#N)(c2ccc(Cl)cc2F)[C@H]1c1cccc(Cl)c1F [Idasanutlin]    6.3
CO[C@H]1C[C@@H]2CC[C@@H](C)[C@@](O)(O2)C(=O)C(=O)N2CCCC[C@H]2C(=O)O[C@H]([C@H](C)C[C@@H]2CC[C@@H](OC(=O)C(C)(CO)CO)[C@H](OC)C2)CC(=O)[C@H](C)/C=C(\C)[C@@H](O)[C@@H](OC)C(=O)[C@H](C)C[C@H](C)/C=C/C=C/C=C/1C [Temsirolimus]    0.7
O=C(/C=C/c1cccc(S(=O)(=O)Nc2ccccc2)c1)NO [Belinostat]    8.6

Return reported Synergy Score DLD-1 values for all items listed beneath this line.
1. Cn1cc(C2=C(c3cn(C4CCN(Cc5ccccn5)CC4)c4ccccc34)C(=O)NC2=O)c2ccccc21 [Enzastaurin]
2. C[C@@H]1C[C@H]2[C@@H]3CCC4=CC(=O)C=C[C@]4(C)[C@@]3(F)[C@@H](O)C[C@]2(C)[C@@]1(O)C(=O)CO [Dexamethasone]
3. CCN1CCN(c2ccc(Nc3cc(N(C)C(=O)Nc4c(Cl)c(OC)cc(OC)c4Cl)ncn3)cc2)CC1 [BGJ398]
4. O=C(c1cc(Cc2n[nH]c(=O)c3ccccc23)ccc1F)N1CCN(C(=O)C2CC2)CC1 [Olaparib]
5. CN(C)CC[C@H](CSc1ccccc1)Nc1ccc(S(=O)(=O)NC(=O)c2ccc(N3CCN(Cc4ccccc4-c4ccc(Cl)cc4)CC3)cc2)cc1[N+](=O)[O-] [ABT-737]

Result:
0.9
0.1
1
0.7
1.5

Return reported Synergy Score DLD-1 values for all items listed beneath this line.
1. CS(=O)(=O)N1CCN(Cc2cc3nc(-c4cccc5[nH]ncc45)nc(N4CCOCC4)c3s2)CC1 [GDC-0941]
2. Nc1cccc2c1C(=O)N(C1CCC(=O)NC1=O)C2=O (stereo not shown) [Pomalidomide]
3. CC1(C)CCC(CN2CCN(c3ccc(C(=O)NS(=O)(=O)c4ccc(NCC5CCOCC5)c([N+](=O)[O-])c4)c(Oc4cnc5[nH]ccc5c4)c3)CC2)=C(c2ccc(Cl)cc2)C1 [ABT-199]

Result:
4.9
0.1
0

---

# System: DLD-1
# PROTOCOL SUMMARY: Drug combination screen (ATPlite, Synergy Score), DLD-1
# SETUP CONDITIONS: compound in combination with IgG1-hDR5-01-G56T-E430G + IgG1-hDR5-05-E430G; DLD-1; 120 hour ATPlite, 6x6 matrix
I'd appreciate it if you marked entries Criterion met when Synergy Score DLD-1 is lower than 3 and Criterion not met when it is not.

Study these solved cases before continuing.
CC(=O)O[C@@]12CO[C@@H]1C[C@H](O)[C@@]1(C)C(=O)[C@H](O)C3=C(C)[C@@H](OC(=O)[C@H](O)[C@@H](NC(=O)OC(C)(C)C)c4ccccc4)C[C@@](O)([C@@H](OC(=O)c4ccccc4)[C@H]21)C3(C)C    Criterion not met
CC[C@H](NC(=O)[C@H](C)NC)C(=O)N1C[C@@H](O)C[C@H]1Cc1c(-c2[nH]c3cc(F)ccc3c2C[C@@H]2C[C@H](O)CN2C(=O)[C@H](CC)NC(=O)[C@H](C)NC)[nH]c2cc(F)ccc12 [Birinapant, reference compound]    Criterion not met
COC1=CC(c2cc3ccccc3[nH]2)=N/C1=C\c1[nH]c(C)cc1C    Criterion not met
O=C1NC(=O)C(c2ccccc2[N+](=O)[O-])=C1Nc1ccc(O)c(Cl)c1    Criterion met

Proceed to the following item.
Q: hey, is Synergy Score DLD-1 for CCCS(=O)(=O)Nc1ccc(F)c(C(=O)c2c[nH]c3ncc(-c4ccc(Cl)cc4)cc23)c1F lower than 3 or not?
Result: Criterion met

---

# Tested on: SNU-C2B
# PROTOCOL SUMMARY: Drug combination screen (ATPlite, Synergy Score), SNU-C2B
# SETUP CONDITIONS: compound in combination with IgG1-hDR5-01-G56T-E430G + IgG1-hDR5-05-E430G; SNU-C2B; 72 hour ATPlite, 6x6 matrix
What Synergy Score SNU-C2B was measured for each of the following?
One number for each entry.

CNC(=O)c1cc(Oc2ccc(NC(=O)Nc3ccc(Cl)c(C(F)(F)F)c3)cc2)ccn1 [Sorafenib]    2.9
O=C(/C=C/c1cccc(S(=O)(=O)Nc2ccccc2)c1)NO [Belinostat]    16.4

Return reported Synergy Score SNU-C2B values for all items listed beneath this line.
1. COc1cccc2c1C(=O)c1c(O)c3c(c(O)c1C2=O)C[C@@](O)(C(=O)CO)C[C@@H]3O[C@H]1C[C@H](N)[C@H](O)[C@H](C)O1 [Doxorubicin]
2. Cn1cc(-c2ccc3nnc(C(F)(F)c4ccc5ncccc5c4)n3n2)cn1 [JNJ-38877605]
3. CO[C@H]1C[C@@H]2CC[C@@H](C)[C@@](O)(O2)C(=O)C(=O)N2CCCC[C@H]2C(=O)O[C@H]([C@H](C)C[C@@H]2CC[C@@H](OCCO)[C@H](OC)C2)CC(=O)[C@H](C)/C=C(\C)[C@@H](O)[C@@H](OC)C(=O)[C@H](C)C[C@H](C)/C=C/C=C/C=C/1C [Everolimus]
4. C[C@@H](Oc1cc(-c2cnn(C3CCNCC3)c2)cnc1N)c1c(Cl)ccc(F)c1Cl [Crizotinib]
5. CC1=C(C(=O)Nc2cc3cn[nH]c3cc2F)C(c2ccc(C(F)(F)F)cc2)CC(=O)N1 (stereo not shown) [Compound G5K429286A]

Result:
1. 18
2. 0.1
3. 3.2
4. 5.4
5. 5.3
